I'd be grateful if you could share measured Dmax at 0.08 µM for these entries.
# Subject Of Test: SMARCA4 (Homo sapiens, UniProt P51532)
# Sequence (P51532 whole entry): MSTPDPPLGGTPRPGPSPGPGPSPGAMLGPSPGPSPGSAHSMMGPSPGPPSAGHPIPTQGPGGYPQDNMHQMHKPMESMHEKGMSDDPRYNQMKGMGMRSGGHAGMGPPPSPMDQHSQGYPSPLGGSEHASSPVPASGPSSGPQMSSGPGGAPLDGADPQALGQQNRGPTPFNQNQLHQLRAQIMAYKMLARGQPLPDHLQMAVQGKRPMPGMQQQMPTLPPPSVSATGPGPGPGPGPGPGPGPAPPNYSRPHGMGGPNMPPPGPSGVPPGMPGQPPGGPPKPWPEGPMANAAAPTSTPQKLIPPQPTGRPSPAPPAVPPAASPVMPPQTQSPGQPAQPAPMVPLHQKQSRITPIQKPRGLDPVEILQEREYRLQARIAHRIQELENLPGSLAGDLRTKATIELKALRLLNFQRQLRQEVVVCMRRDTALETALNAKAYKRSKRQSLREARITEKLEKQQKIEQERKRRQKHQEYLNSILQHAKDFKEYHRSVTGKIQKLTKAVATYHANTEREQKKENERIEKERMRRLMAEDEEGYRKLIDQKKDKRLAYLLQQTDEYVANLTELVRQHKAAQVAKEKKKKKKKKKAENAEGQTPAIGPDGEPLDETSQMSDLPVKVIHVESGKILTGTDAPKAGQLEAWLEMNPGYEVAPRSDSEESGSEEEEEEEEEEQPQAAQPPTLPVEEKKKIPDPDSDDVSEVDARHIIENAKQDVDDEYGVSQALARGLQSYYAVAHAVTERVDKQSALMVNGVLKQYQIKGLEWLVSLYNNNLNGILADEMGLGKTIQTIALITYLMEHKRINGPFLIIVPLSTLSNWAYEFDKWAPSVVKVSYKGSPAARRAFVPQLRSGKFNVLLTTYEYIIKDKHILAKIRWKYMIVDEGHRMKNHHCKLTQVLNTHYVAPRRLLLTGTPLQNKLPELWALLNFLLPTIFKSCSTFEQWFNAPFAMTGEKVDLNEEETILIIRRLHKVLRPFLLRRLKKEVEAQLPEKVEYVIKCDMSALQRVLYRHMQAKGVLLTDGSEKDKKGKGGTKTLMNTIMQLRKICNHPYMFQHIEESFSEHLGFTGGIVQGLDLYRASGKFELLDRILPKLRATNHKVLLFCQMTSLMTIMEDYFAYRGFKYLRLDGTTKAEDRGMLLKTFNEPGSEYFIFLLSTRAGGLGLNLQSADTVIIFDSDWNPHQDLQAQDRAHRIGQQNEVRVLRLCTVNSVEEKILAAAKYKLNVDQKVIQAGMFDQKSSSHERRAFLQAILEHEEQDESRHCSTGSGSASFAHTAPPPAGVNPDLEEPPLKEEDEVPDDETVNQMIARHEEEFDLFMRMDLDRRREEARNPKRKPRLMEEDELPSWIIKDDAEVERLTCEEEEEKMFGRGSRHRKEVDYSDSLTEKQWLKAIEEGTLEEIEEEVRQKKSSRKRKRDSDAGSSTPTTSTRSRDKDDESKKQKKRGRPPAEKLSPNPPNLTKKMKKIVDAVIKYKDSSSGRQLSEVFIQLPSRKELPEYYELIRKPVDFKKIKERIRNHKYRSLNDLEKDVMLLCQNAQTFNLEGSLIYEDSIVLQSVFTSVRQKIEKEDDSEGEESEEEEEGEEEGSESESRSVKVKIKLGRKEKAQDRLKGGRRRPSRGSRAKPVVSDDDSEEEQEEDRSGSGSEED
# Protocol Text: SMARCA4 degradation in SW1573 cells (Western blot)
# Assay type: cell-based
# Set-up: endogenous in cells; host or cells: SW1573
# Details: 80 nM, 24 hours, read-out: Degradation rate of SMARCA4 in SW1573 cells (%)
Answers are plain numbers, in %.

[
  {
    "Molecule": "Nc1nnc(-c2ccccc2O)cc1C#CC1CCC2(CC1)CC(N1CC3(CCc4cc(F)c(C(=O)N[C@H]5CCC(=O)NC5=O)cc4O3)C1)C2 (stereo partly drawn) [SM-P-9]",
    "Quantity": "Dmax at 0.08 µM",
    "Reported": -5
  },
  {
    "Molecule": "Nc1nnc(-c2ccccc2O)cc1C#CC1CCC2(CC1)CC(N1CCC3(CC1)COc1cc(NC4CCC(=O)NC4=O)ccc1C3)C2 (stereo not drawn) [SM-P-23]",
    "Quantity": "Dmax at 0.08 µM",
    "Reported": 93
  }
]

Notebook: Cn1c(=O)n(C2CCC(=O)NC2=O)c2cc3c(cc21)OC1(CC3)CCN(C2CC3(CCC(C#Cc4cc(-c5ccccc5O)nnc4N)CC3)C2)CC1 (stereo not drawn) [SM-P-1] , Dmax at 0.08 µM read as 97
